B1: library; numbered along this chain (parent)
chain: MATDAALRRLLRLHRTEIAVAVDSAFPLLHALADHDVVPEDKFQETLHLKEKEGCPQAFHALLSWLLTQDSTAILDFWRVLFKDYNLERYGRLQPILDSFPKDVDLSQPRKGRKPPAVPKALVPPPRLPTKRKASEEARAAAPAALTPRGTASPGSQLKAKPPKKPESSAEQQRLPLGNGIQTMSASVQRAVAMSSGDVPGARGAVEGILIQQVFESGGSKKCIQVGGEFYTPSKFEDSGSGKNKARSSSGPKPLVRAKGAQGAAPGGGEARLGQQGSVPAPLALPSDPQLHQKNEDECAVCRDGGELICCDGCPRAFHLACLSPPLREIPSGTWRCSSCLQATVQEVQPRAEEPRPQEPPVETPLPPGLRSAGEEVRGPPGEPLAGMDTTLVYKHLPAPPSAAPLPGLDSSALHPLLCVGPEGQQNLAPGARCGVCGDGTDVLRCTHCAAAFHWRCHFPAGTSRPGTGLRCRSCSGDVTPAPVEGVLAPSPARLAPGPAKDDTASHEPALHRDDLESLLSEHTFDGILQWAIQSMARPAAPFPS

# Variants of: B1
# run description: AIRE transcriptional activation functional score (insulin promoter-GFP; nonsense median 0, synonymous median 1) (normalised score); higher = higher AIRE activity (more reporter activation)
# test context: with insulin promoter-GFP reporter in HEK293
Outcome label depends on AIRE transcriptional activation functional score relative to 1: at/above gives 1.0, below gives 0.0.

{"mutant code": "E376N", "label": 1.0}
{"mutant code": "A142E", "label": 1.0}
{"mutant code": "G313W", "label": 1.0}
{"mutant code": "A532P", "label": 0.0}
{"mutant code": "Q358L", "label": 1.0}
{"mutant code": "A496Y", "label": 1.0}
{"mutant code": "A261F", "label": 1.0}
{"mutant code": "R190S", "label": 0.0}
{"mutant code": "T130S", "label": 1.0}
{"mutant code": "P350E", "label": 1.0}
{"mutant code": "K294A", "label": 0.0}
{"mutant code": "R15S", "label": 0.0}
{"mutant code": "P289A", "label": 0.0}
{"mutant code": "P166Y", "label": 1.0}
{"mutant code": "S196P", "label": 0.0}
{"mutant code": "S332Y", "label": 1.0}
{"mutant code": "C310F", "label": 0.0}
{"mutant code": "P282R", "label": 0.0}
{"mutant code": "F26Y", "label": 0.0}
{"mutant code": "F453M", "label": 0.0}
{"mutant code": "I224R", "label": 0.0}
{"mutant code": "C302R", "label": 0.0}
{"mutant code": "P499R", "label": 0.0}
{"mutant code": "E383F", "label": 1.0}
{"mutant code": "V214Y", "label": 1.0}
{"mutant code": "G242K", "label": 0.0}
{"mutant code": "Q189S", "label": 1.0}
{"mutant code": "P101N", "label": 0.0}
{"mutant code": "L385S", "label": 0.0}
{"mutant code": "V443N", "label": 0.0}
{"mutant code": "V393T", "label": 1.0}
{"mutant code": "L210C", "label": 0.0}
{"mutant code": "P126A", "label": 0.0}
{"mutant code": "D4Y", "label": 0.0}
{"mutant code": "A271S", "label": 1.0}
{"mutant code": "A21W", "label": 0.0}
{"mutant code": "A541L", "label": 0.0}
{"mutant code": "S249A", "label": 1.0}
{"mutant code": "G438E", "label": 0.0}
{"mutant code": "E329F", "label": 1.0}
{"mutant code": "A25S", "label": 0.0}
{"mutant code": "S107K", "label": 0.0}
{"mutant code": "G240Q", "label": 0.0}
{"mutant code": "S412N", "label": 0.0}
{"mutant code": "R8Q", "label": 0.0}
{"mutant code": "Q189C", "label": 0.0}
{"mutant code": "L29N", "label": 0.0}
{"mutant code": "A540V", "label": 1.0}
{"mutant code": "V206F", "label": 0.0}
{"mutant code": "S99M", "label": 1.0}
{"mutant code": "I309E", "label": 1.0}
{"mutant code": "A281E", "label": 0.0}
{"mutant code": "W65A", "label": 0.0}
{"mutant code": "T3W", "label": 1.0}
{"mutant code": "A2G", "label": 0.0}
{"mutant code": "L97I", "label": 0.0}
{"mutant code": "P95L", "label": 1.0}
{"mutant code": "Q342W", "label": 1.0}
{"mutant code": "Q262D", "label": 1.0}
{"mutant code": "G263C", "label": 0.0}
{"mutant code": "A352G", "label": 0.0}
{"mutant code": "R247Q", "label": 0.0}
{"mutant code": "A191G", "label": 0.0}
{"mutant code": "L177D", "label": 0.0}
{"mutant code": "P400E", "label": 0.0}
{"mutant code": "K235L", "label": 0.0}
{"mutant code": "L66P", "label": 0.0}
{"mutant code": "G208Y", "label": 0.0}
